- System: L1210
- PROTOCOL SUMMARY: Antitumor activity against murine leukemia L1210 cell line.
- Format: functional, cell-based
- RUN PARAMETERS: Mus musculus
VALUE KIND: IC50 (nM)

Please review the entries below; each comes with its answer.
CN(C)CCN1C(=O)c2cccc3cc4ccc(I)cc4c(c23)C1=O; 52
CN(C)CCN1C(=O)c2cccc3cc4cc(Cl)ccc4c(c23)C1=O; 7.7

a = CN(C)CCN1C(=O)c2cccc3cc4ccc(C#N)cc4c(c23)C1=O
b = COc1ccc2c3c4c(cccc4cc2c1)C(=O)N(CCN(C)C)C3=O
c = CN(C)CCNc1ccc2cc3ccccc3c3c2c1C(=O)N(CCN(C)C)C3=O
d = CN(C)CCN1C(=O)c2cccc3cc4ccc([N+](=O)[O-])cc4c(c23)C1=O
e = CN(C)CCN1C(=O)c2cccc3cc4ccc(-c5ccccc5)cc4c(c23)C1=O
-- ask Please list these in order of increasing IC50. Thank you! Returns: the labels listed in the requested order.
-- reply a, d, b, e, c
(a: 13 nM, d: 25 nM, b: 54 nM, e: 128 nM, c: 245 nM)

P = COc1cccc2c3c4c(cccc4cc12)C(=O)N(CCN(C)C)C3=O
Q = CN(C)CCN1C(=O)c2cccc3cc4cccc(Cl)c4c(c23)C1=O
-- ask # compare IC50 for P vs Q ; return the one with the smaller value Identify your selection by its label.
-- reply P
(P: 18 nM, Q: 617 nM)

###

- Tested on: WiDr
- PROTOCOL SUMMARY: Activity against human colon carcinoma sensitive WiDr cell line.
- Type: functional, cell-based
pIC50: −log10 of the molar value.
VALUE KIND: pIC50

I = CN(C)CCN1C(=O)c2cccc3cc4ccc(Cl)cc4c(c23)C1=O
II = COc1ccc2c3c4c(cccc4cc2c1)C(=O)N(CCN(C)C)C3=O
III = COc1ccc2cc3ccccc3c3c2c1C(=O)N(CCN(C)C)C3=O
IV = CN(C)CCN1C(=O)c2cccc3cc4cccc(Cl)c4c(c23)C1=O
V = CN(C)CCN1C(=O)c2cccc3cc4ccc([N+](=O)[O-])cc4c(c23)C1=O
-- ask I would appreciate it if you could sort these 5 compounds by pIC50, starting from the smallest number. Quick reminder: the answer is the labels in the order asked.
-- reply III, IV, II, I, V

###

- Species: Rattus norvegicus
- PROTOCOL SUMMARY: Cardiotoxicity measured by the ATP/protein ratio compared with untreated controls using neonatal rat heart myocyte assay.
- Assay type: functional
Reported pIC50 is given for each of the following compounds.
Expect pIC50 as a plain number equal to -log10 of the molar concentration.

// worked examples, pIC50 included
COc1cccc2c1C(=O)c1c(O)c3c(c(O)c1C2=O)C[C@@](O)(C(=O)CO)C[C@@H]3O[C@H]1C[C@H](N)[C@H](O)[C@H](C)O1; 4.99
Cc1ccc2cc3cccc4c3c(c2c1)C(=O)N(CCN(C)C)C4=O; 6.00
CN(C)CCNc1ccc2cc3ccccc3c3c2c1C(=O)N(CCN(C)C)C3=O; 6.13
CN(C)CCN1C(=O)c2cccc3cc4cccc(Cl)c4c(c23)C1=O; 5.08

-- ask Any idea what pIC50 was measured for CN(C)CCN1C(=O)c2cccc3cc4ccccc4c(c23)C1=O [AZONAFIDE] ?
-- reply 5.70

-- ask So what's the measured pIC50 for this one? CN(C)CCN1C(=O)c2cccc3cc4c(Cl)cccc4c(c23)C1=O
-- reply 5.99

-- ask So what's the measured pIC50 for this one? CN(C)CCN1C(=O)c2cccc3cc4cc(O)ccc4c(c23)C1=O
-- reply 6.39

-- ask I would be grateful if you could share the reported pIC50 for COc1ccc2cc3cccc4c3c(c2c1)C(=O)N(CCN(C)C)C4=O .
-- reply 5.04

-- ask Any idea what its pIC50 is? The compound is CN(C)CCN1C(=O)c2cccc3cc4ccc(F)cc4c(c23)C1=O
-- reply 6.34

-- ask What does the data say about its pIC50? Entry: COc1cccc2c3c4c(cccc4cc12)C(=O)N(CCN(C)C)C3=O
-- reply 6.09

###

- System: WiDr
- PROTOCOL SUMMARY: Activity against human colon carcinoma multi drug resistant (MDR)-WiDr cell line.
- Format: functional, cell-based
VALUE KIND: IC50 (nM)

Worked examples, 4 compounds total:
CNCCN1C(=O)c2cccc3cc4ccc(Cl)cc4c(c23)C1=O; 64
CN(C)CCN1C(=O)c2c(O)ccc3cc4ccccc4c(c23)C1=O; 4700
Cc1ccc2cc3cccc4c3c(c2c1)C(=O)N(CCN(C)C)C4=O; 120
COc1ccc2cc3ccccc3c3c2c1C(=O)N(CCN(C)C)C3=O; 900

I = CN(C)CCN1C(=O)c2cccc3cc4ccc(Cl)cc4c(c23)C1=O
II = CN(C)CCN1C(=O)c2cccc3cc4cc(O)ccc4c(c23)C1=O
-- ask Lab note: check whether I or II shows the higher recorded IC50. Answer by quoting the chosen item's label.
-- reply I

P = CN(C)CCN1C(=O)c2cccc3cc4ccc(-c5ccccc5)cc4c(c23)C1=O
Q = CN(C)CCNc1ccc2cc3ccccc3c3c2c1C(=O)N(CCN(C)C)C3=O
-- ask Select one. Lower IC50: P or Q Selection: enter the item's label.
-- reply P
(P: 320 nM, Q: 680 nM)

###

- System: A549
- PROTOCOL SUMMARY: Activity against A549 cancer cell line.
- Assay type: functional, cell-based
- RUN PARAMETERS: Homo sapiens
pIC50: −log10 of the molar value.
VALUE KIND: pIC50

COc1ccc2cc3ccccc3c3c2c1C(=O)N(CCN(C)C)C3=O; 7.09

A = CN(C)CCN1C(=O)c2cccc3cc4cccc(Cl)c4c(c23)C1=O
B = CN(C)CCN1C(=O)c2cccc3cc4cc(Cl)ccc4c(c23)C1=O
-- ask Param metric = pIC50; output whichever of A , B has the minimum value. Provide the label of your selected option as the answer.
-- reply A

###

- Species: Rattus norvegicus
- PROTOCOL SUMMARY: Cardiotoxicity measured by the ATP/protein ratio compared with untreated controls using neonatal rat heart myocyte assay.
- Assay type: functional
Reported IC50 by item:
Express it in µM; write the number only.

Answered examples (3):
CCOc1ccc2cc3cccc4c3c(c2c1)C(=O)N(CCN(C)C)C4=O; 11.3
CN(C)CCN1C(=O)c2cccc3cc4ccc(C#N)cc4c(c23)C1=O; 0.105
O=C1c2c(O)ccc(O)c2C(=O)c2c(NCCNCCO)ccc(NCCNCCO)c21; 7.74

Next item in the queue.
-- ask Requested field: IC50. Item: CN(C)CCN1C(=O)c2cccc3cc4cccc(O)c4c(c23)C1=O
-- reply 15.4
